Provenance of the data: ChEMBL document CHEMBL2218924

- target_system: Maternal embryonic leucine zipper kinase (Homo sapiens)
- recorded_conditions: at 1 µM
Kindly return yes if reported residual activity is no lower than 90%; return no if it is lower.

- O=C1NC(=O)/C(=C\c2ccc3nccnc3c2)S1: no
- COc1ccc(OC)c2c(=S)c3ccccc3[nH]c12: yes
- C[C@@H](N)[C@H]1CC[C@H](C(=O)Nc2ccncc2)CC1: yes
- COc1cc2ncc(-c3ccccc3)nc2cc1OC: no
- CC(=O)O/N=C1\C(=C2\C(=O)Nc3cc(Br)ccc32)Nc2ccccc21: no
- CCN(CC)C(=O)c1ccc(Nc2nc(OCC3CCCCC3)c3nc[nH]c3n2)cc1: no
- Cn1nc2c3c(cccc31)C(=O)c1ccccc1-2: no
- N#CC(C#N)=C(N)/C(C#N)=C/c1ccc(O)cc1: no
- O=C1c2ccccc2-[n+]2ccc3c([nH]c4ccccc43)c21: no
- CC(C)n1cnc2c(NCc3ccccc3)nc(NCCCO)nc21: no
- N#C/C(=C(\N)Sc1ccc(N)cc1)c1ccccc1C(F)(F)F: no
- COc1ccc(CNc2nc(N(CCO)CCO)nc3c2ncn3C(C)C)cc1: no
- CO[C@@H]1[C@H](N(C)C(=O)c2ccccc2)C[C@H]2O[C@]1(C)n1c3ccccc3c3c4c(c5c6ccccc6n2c5c31)C(=O)NC4: no
- CN(C)CCCn1cc(C2=C(c3c[nH]c4ccccc34)C(=O)NC2=O)c2ccccc21: no
- Ic1cccc(CSc2nnc(-c3ccncc3)o2)c1: no
- COc1cccc(-c2cc(=O)c3ccccc3o2)c1N: yes
- O=c1cc(-c2cccc3c2Sc2ccccc2S3)oc(N2CCOCC2)c1: yes
- COc1cc2ncnc(Nc3ccc(NC(=O)c4ccccc4)cc3)c2cc1OC: no
- Oc1ccc(Nc2nc(-c3ccc(Cl)cc3)cs2)cc1: yes
- c1ccc(-c2n[nH]c3c2oc2ccccc23)cc1: no
- O=C1Nc2ccccc2/C1=C1/Nc2ccccc2/C1=N\OCCC(O)CO (centres undefined): no
- Nc1nc(Nc2ccc(S(N)(=O)=O)cc2)nn1C(=S)Nc1c(F)cccc1F: no
- O=C1Nc2cc(Br)ccc2/C1=C1/Nc2ccccc2/C1=N\O: no
- Cc1ccc(NC2=CC(=O)c3sc(C)nc3C2=O)cc1: yes
- CC#CC(=O)Nc1cc2c(Nc3ccc(F)c(Cl)c3)ncnc2cn1: no
- Cc1ccc(S(=O)(=O)/C=C/C#N)cc1: yes
- CC(C)n1cnc2/c(=N/c3cccc(Cl)c3)nc(NCCO)[nH]c21: no
- CO[C@H]1[C@@H](OC)C[C@H](C)[C@@H](OC)C2=CC(=O)C=C(NC(=O)/C(C)=C/C=C/[C@H](OC)[C@@H](OC(N)=O)/C(C)=C/[C@@H]1C)C2=O: no
- O=C1NC(=O)c2c1c1c3ccccc3[nH]c1c1[nH]c3cc(Br)ccc3c21: no
- O=[N+]([O-])c1ccc(-c2nc(-c3ccc(F)cc3)c(-c3ccncc3)[nH]2)cc1: yes
- Oc1c2ccccc2c2c3c(cccc13)N=N2: no
- CCN(CC)CCCCN1c2ccccc2Oc2ccc(Cl)cc21: yes
- Cc1cc2ncc(-c3ccccc3)nc2cc1C: no

====

- target_system: Ribosomal protein S6 kinase beta-1 (Homo sapiens)
- recorded_conditions: at 10 µM
property_measured: residual activity (%)

- Oc1ccc(-c2nc(-c3ccc(F)cc3)c(-c3ccncc3)[nH]2)cc1: 25
- O=C(O)c1ccc2c3c1cccc3c(=O)n1c3ccccc3nc21: 46
- CCC(=O)Nc1ccc2ncnc(Nc3cccc(Br)c3)c2c1: 127
- N#CC(C#N)=C(N)/C(C#N)=C/c1ccc(O)cc1: 77
- CCOc1cc2ncnc(Nc3cccc(Br)c3)c2cc1OCC: 54
- CO[C@@H]1[C@H](N(C)C(=O)c2ccccc2)C[C@H]2O[C@]1(C)n1c3ccccc3c3c4c(c5c6ccccc6n2c5c31)C(=O)NC4: 1
- CNc1cc2c(Nc3cccc(Br)c3)ncnc2cn1: 145
- O=C(Nc1cccc(Nc2cc(Nc3cccc(C(F)(F)F)c3)ncn2)c1)C1CC1: 110
- CCN(CC)C(=O)c1ccc(Nc2nc(OCC3CCCCC3)c3nc[nH]c3n2)cc1: 17
- COc1ccc(OC)c2c(=S)c3ccccc3[nH]c12: 86
- COc1ccc(S(=O)(=O)N(CCO)c2ccccc2CN(C)C/C=C/c2ccc(Cl)cc2)cc1: 78
- CO[C@H]1C[C@@H]2CC[C@@H](C)[C@@](O)(O2)C(=O)C(=O)N2CCCC[C@H]2C(=O)O[C@H]([C@H](C)C[C@@H]2CC[C@@H](O)[C@H](OC)C2)CC(=O)[C@H](C)/C=C(\C)[C@@H](O)[C@@H](OC)C(=O)[C@H](C)C[C@H](C)/C=C/C=C/C=C/1C: 147
- C[C@@H](N)[C@H]1CC[C@H](C(=O)Nc2ccncc2)CC1: 71
- Oc1c2ccccc2c2c3c(cccc13)N=N2: 14
- Cn1cnc2cc3c(Nc4cccc(Br)c4)ncnc3cc21: 71
- Cc1cc2ncc(-c3ccccc3)nc2cc1C: 52
- CC(C)n1cnc2/c(=N/c3cccc(Cl)c3)nc(NCCO)[nH]c21: 15
- Cc1nc2cc3nc(-c4cccs4)cnc3cc2n1C: 112
- COc1ccc(C(=O)Nc2sc3c(c2C(N)=O)CCCC3)cc1OC: 83
- Nc1nc(Nc2ccc(S(N)(=O)=O)cc2)nn1C(=S)Nc1c(F)cccc1F: 11
- COc1cccc(-c2cc(=O)c3ccccc3o2)c1N: 106

====

- target_system: Serine/threonine-protein kinase Chk1 (Homo sapiens) (UniProt O14757)
- Sequence (O14757 whole entry): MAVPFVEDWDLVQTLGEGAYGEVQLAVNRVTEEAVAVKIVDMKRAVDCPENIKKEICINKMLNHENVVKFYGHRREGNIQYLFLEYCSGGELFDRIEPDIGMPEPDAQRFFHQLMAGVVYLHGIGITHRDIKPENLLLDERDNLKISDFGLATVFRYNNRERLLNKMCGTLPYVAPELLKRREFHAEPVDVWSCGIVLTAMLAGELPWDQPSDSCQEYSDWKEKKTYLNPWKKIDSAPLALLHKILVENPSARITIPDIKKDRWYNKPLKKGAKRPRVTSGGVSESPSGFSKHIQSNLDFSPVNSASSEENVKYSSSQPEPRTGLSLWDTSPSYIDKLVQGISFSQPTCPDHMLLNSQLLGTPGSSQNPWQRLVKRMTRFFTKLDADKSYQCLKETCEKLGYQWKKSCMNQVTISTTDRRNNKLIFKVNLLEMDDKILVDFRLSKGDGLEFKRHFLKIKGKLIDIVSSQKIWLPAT
- recorded_conditions: at 10 µM
property_measured: residual activity (%)

• Cc1cccc(-c2[nH]c(C(C)(C)C)nc2-c2ccc3c(c2)OCO3)n1 = 92
• O=C(O)c1ccc2c3c1cccc3c(=O)n1c3ccccc3nc21 = 94
• Oc1ccc(Nc2nc(-c3ccc(Cl)cc3)cs2)cc1 = 104
• N#CC(C#N)=C(N)/C(C#N)=C/c1ccc(O)cc1 = 96
• O=C1NC(=O)c2cc(Nc3ccc(F)cc3)c(Nc3ccc(F)cc3)cc21 = 103
• O=c1cc(-c2cccc3c2Sc2ccccc2S3)oc(N2CCOCC2)c1 = 94
• COc1cc2ncnc(Nc3ccc(Oc4ccccc4)cc3)c2cc1OC = 88
• NC(=O)c1ccc2[nH]c(-c3ccc(Oc4ccc(Cl)cc4)cc3)nc2c1 = 97
• O=C(Nc1cccc(Nc2nccc(Nc3cccc(C(F)(F)F)c3)n2)c1)C1CC1 = 77
• O=C1Nc2cc(Br)ccc2/C1=C1/Nc2ccccc2/C1=N\O = 19
• CC(C)n1cnc2/c(=N/c3cccc(Cl)c3)nc(NCCO)[nH]c21 = 25
• c1ccc2c(-c3ccncc3)c[nH]c2c1 = 80
• CCOc1cc2ncnc(Nc3cccc(Br)c3)c2cc1OCC = 82
• Cc1cc(Nc2nc(-c3ccccc3)nc3ccccc23)n[nH]1 = 16
• COc1cc2ncnc(N3CCN(C(=O)Nc4ccc(Oc5ccccc5)cc4)CC3)c2cc1OC = 80
• COc1cc2ncnc(Nc3ccc(O)c(Br)c3)c2cc1OC = 70
• Oc1c2ccccc2c2c3c(cccc13)N=N2 = 32
• COc1cccc(-c2cc(=O)c3ccccc3o2)c1N = 90
• COc1ccc(C(=O)Nc2sc3c(c2C(N)=O)CCCC3)cc1OC = 104
• N#C/C(=C(\N)Sc1ccc(N)cc1)c1ccccc1C(F)(F)F = 86
• C[C@@H](N)[C@H]1CC[C@H](C(=O)Nc2ccncc2)CC1 = 104
• Cc1nc(-c2ccccc2)c(-c2ccncc2)o1 = 98
• O=Nc1c(-c2c(O)[nH]c3ccccc23)[nH]c2ccccc12 = 30
• Oc1ccc(-c2nc(-c3ccc(F)cc3)c(-c3ccncc3)[nH]2)cc1 = 92
• Cc1ccc(NC2=CC(=O)c3sc(C)nc3C2=O)cc1 = 87
• Nc1ccc2ncnc(NCCc3ccc(Oc4ccccc4)cc3)c2c1 = 72
• Nc1cccc(-c2cc3c(Oc4cccc(O)c4)ncnc3[nH]2)c1 = 11
• CN(C)CCCn1cc(C2=C(c3c[nH]c4ccccc34)C(=O)NC2=O)c2ccccc21 = 17
• Oc1n[nH]c2nnc(-c3c(-c4ccccc4)nn4ccccc34)cc12 = 81
• O=C1NC(=O)/C(=C\c2ccc3nccnc3c2)S1 = 91
• N#CCCc1ccc2c(c1)-c1[nH]c3ccc([N+](=O)[O-])cc3c1CC(=O)N2 = 16
• Nc1nc(Nc2ccc(S(N)(=O)=O)cc2)nn1C(=S)Nc1c(F)cccc1F = -1
• COc1ccc(OC)c2c(=S)c3ccccc3[nH]c12 = 88

====

- target_system: 3-phosphoinositide-dependent protein kinase 1 (Homo sapiens) (UniProt O15530)
- Sequence (O15530 whole entry): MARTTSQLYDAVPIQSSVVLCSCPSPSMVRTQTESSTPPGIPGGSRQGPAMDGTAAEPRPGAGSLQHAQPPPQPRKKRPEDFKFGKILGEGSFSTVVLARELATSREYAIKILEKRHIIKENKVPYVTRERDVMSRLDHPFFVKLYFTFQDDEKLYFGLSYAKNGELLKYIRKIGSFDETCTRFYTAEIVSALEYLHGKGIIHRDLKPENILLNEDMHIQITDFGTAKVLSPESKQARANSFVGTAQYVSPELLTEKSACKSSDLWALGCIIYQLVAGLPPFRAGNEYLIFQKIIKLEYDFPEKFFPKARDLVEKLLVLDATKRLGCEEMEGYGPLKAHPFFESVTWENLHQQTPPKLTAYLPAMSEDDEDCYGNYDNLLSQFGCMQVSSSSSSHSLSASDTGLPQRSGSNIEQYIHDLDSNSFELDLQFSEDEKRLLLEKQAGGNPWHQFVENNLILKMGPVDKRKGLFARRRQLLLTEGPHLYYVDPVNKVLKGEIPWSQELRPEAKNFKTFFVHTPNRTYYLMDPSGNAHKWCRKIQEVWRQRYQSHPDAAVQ
- recorded_conditions: at 10 µM
property_measured: residual activity (%)

- N#C/C(=C(\N)Sc1ccc(N)cc1)c1ccccc1C(F)(F)F: 87
- N#CCCc1ccc2c(c1)-c1[nH]c3ccc([N+](=O)[O-])cc3c1CC(=O)N2: 6
- O=c1c2ccccc2[nH]c(=S)n1CCN1CCC(=C(c2ccc(F)cc2)c2ccc(F)cc2)CC1: 111
- O=C1NC(=O)c2c1c1c3ccccc3[nH]c1c1[nH]c3cc(Br)ccc3c21: 29
- O=C1NC(=O)c2cc(Nc3ccc(F)cc3)c(Nc3ccc(F)cc3)cc21: 110
